# Tested on: 0.4 mm slices of rat hippocampus
# experimental_protocol: hippocampal slice assay: ATP after iodoacetate metabolic insult
# recorded_conditions: Rattus norvegicus, read-out: EC50 (max set @ 100)
pEC50: −log10 of the molar value.
# pEC50 >= 5 gives condition met, anything below gives condition not met

Threshold query (pEC50 >= 5) on Nc1nnc(-c2cc(Cl)cc(Cl)c2Cl)c(N)n1
condition met

Okay, and Nc1nnc(-c2cccc(Cl)c2Cl)c(N)n1 [Example 1, reference compound] ?
condition not met

Okay, and CCCn1nc(-c2cccc(Cl)c2Cl)c(N)nc1=N ?
condition not met

Okay, and Cn1nc(-c2cccc(Cl)c2Cl)c(N)nc1=N ?
condition not met
